System: VDR:RXRa (NR concentration 270 nM, RXRa partner concentration 90 nM)
ASSAY COMMENT: PBM binding z-score (relative to random genomic background probes); higher = stronger binding; sequences stand for … in GC…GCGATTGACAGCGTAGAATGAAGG
ENDPOINT: PBM binding z-score

- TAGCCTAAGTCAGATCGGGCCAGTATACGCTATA: -0.662
- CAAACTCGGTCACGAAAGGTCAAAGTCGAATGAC: 5.86
- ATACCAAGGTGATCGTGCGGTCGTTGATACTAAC: 0.18
- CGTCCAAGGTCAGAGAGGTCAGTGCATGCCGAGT: 7.42
- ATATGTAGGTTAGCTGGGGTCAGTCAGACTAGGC: 4.52
- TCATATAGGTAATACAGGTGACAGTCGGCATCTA: 0.922
- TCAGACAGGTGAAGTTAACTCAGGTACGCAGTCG: 0.573
- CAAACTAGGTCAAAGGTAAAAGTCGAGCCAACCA: 2.98
- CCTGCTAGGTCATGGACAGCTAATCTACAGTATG: 1.56
- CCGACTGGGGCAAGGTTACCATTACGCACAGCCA: 0.00135
- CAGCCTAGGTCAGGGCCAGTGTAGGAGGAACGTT: 0.257
- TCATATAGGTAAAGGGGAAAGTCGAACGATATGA: 0.735

---

Below, each of the sequences is paired with its reported PBM binding z-score value.
System: PPARg:RXRa IVT, anti-PPARg (NR concentration 270 nM, RXRa partner concentration 90 nM)
ASSAY COMMENT: PBM binding z-score (relative to random genomic background probes); higher = stronger binding; sequences stand for … in GC…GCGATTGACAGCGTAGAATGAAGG
ENDPOINT: PBM binding z-score

• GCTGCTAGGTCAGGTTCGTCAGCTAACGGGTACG = 2.23
• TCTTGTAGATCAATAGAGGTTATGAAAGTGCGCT = 1.34
• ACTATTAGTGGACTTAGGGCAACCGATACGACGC = 0.425
• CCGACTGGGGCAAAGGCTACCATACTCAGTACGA = 3.71
• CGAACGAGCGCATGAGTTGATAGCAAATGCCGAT = -0.827
• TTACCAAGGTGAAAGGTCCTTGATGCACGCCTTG = 4.34
• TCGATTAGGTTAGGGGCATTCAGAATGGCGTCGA = 0.798
• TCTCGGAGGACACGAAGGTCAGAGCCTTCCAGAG = 0.917
• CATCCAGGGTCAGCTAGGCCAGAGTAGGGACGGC = 2.52
• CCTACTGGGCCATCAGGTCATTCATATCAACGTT = 4.74
• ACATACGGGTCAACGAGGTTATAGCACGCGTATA = 4.26
• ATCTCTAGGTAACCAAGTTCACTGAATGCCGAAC = 3.32
• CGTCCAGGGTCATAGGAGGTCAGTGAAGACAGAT = 3.92
• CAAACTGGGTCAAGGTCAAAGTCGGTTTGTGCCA = 8.43
• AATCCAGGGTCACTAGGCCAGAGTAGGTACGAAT = 5.76
• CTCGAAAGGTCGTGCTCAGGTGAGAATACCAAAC = 1.89
• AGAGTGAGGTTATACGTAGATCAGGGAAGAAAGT = 0.769
• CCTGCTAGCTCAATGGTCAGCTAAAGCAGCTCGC = -0.705
• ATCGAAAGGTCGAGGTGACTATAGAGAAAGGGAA = 2.86
• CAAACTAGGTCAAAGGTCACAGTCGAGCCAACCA = 9.39
• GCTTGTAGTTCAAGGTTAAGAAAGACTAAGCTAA = 0.825
• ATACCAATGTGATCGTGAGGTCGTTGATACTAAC = 0.568
• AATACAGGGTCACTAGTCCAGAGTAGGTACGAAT = 4.67
• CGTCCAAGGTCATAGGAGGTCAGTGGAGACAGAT = 4.65
• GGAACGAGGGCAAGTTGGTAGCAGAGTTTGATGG = 2.34
• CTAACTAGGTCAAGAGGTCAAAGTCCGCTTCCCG = 8.7
• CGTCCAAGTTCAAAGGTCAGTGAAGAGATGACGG = 2.79
• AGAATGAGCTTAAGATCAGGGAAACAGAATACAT = -0.493
• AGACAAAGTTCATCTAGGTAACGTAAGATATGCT = 3.2
• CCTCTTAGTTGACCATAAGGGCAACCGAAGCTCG = 0.373
• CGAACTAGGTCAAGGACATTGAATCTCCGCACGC = 7.84
• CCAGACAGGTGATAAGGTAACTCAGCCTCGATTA = 0.261
• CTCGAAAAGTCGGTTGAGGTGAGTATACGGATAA = 0.59
• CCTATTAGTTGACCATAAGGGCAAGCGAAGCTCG = 0.158
• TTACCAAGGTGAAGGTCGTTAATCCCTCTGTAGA = 3.05
• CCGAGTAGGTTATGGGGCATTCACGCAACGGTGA = 3.48
• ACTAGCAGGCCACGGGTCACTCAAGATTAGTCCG = 3.02
• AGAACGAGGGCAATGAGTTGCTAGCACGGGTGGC = 2.38
• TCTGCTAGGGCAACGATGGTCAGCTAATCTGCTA = 1.59
• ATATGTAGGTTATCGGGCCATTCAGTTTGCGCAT = 6.82
• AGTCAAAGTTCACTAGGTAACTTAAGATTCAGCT = 4.8
• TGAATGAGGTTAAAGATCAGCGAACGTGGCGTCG = 3.38
• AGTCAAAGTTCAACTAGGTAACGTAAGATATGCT = 4.36
• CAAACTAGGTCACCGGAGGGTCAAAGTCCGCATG = 8.77
• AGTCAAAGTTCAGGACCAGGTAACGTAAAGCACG = 1.91
• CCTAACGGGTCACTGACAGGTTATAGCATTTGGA = 2.71
• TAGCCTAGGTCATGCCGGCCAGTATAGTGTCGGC = 2.47
• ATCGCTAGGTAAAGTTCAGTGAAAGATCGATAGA = 0.414
• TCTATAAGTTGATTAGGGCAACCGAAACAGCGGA = 1.45
• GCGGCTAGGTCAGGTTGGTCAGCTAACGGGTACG = 1.36
• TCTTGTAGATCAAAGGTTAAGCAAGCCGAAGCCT = 4.26
